study-system: swine pancreatic α-amylase (Sus scrofa, UniProt P00690)
Construct: purchased Sigma Co. A-6255
test: Hydrolysis of oligosaccharides by pancreatic α-amylase (comparative)
Type: biochemical
conditions: 1 Unit/ml α-amylase; 10 mM substrate; pH 6.9, 20° C.; 1 Unit = 1 umol per hour
Excerpt: Swine pancreatic α-amylase is known to hydrolyze maltooligosaccharide from the reducing end by two or three sugar units [“Denpun.Kanren Toushitsu Kouso Jikken-hou” (“Experimental methods in enzymes for starch and relating saccharides”), p 135, written by Michinori Nakamura and Keiji Kainuma, published by Gakkai-Shuppan-Sentah]. […]
Could you please report measured Production rate of di- and trisaccharides for the items listed next?
Hi! Could you send only the number? It should be in units/ml, unit omitted.

// query Request - read-out Production rate of di- and trisaccharides | tested on swine pancreatic α-amylase (Sus scrofa, UniProt P00690) | molecule OCC1OC(OC2OC(CO)C(OC3OC(CO)C(OC4OC(CO)C(O)C(O)C4O)C(O)C3O)C(O)C2O)C(O)C(O)C1O [Maltosyltrehalose, α-D-maltotriosyl α-D-glucopyranoside]
// result 0

// query Ok, now OC[C@H]1O[C@H](O[C@H]2[C@H](O)[C@@H](O)[C@@H](O[C@H]3[C@H](O)[C@@H](O)[C@@H](O[C@H]4[C@H](O)[C@@H](O)C(O)O[C@@H]4CO)O[C@@H]3CO)O[C@@H]2CO)[C@H](O)[C@@H](O)[C@@H]1O (stereo partly drawn)
// result 0.49

// query // repeat for OC[C@H]1O[C@H](O[C@H]2O[C@H](CO)[C@@H](O[C@H]3O[C@H](CO)[C@@H](O[C@H]4O[C@H](CO)[C@@H](O[C@H]5O[C@H](CO)[C@@H](O[C@H]6O[C@H](CO)[C@@H](O[C@H]7O[C@H](CO)[C@@H](O)[C@H](O)[C@H]7O)[C@H](O)[C@H]6O)[C@H](O)[C@H]5O)[C@H](O)[C@H]4O)[C@H](O)[C@H]3O)[C@H](O)[C@H]2O)[C@H](O)[C@@H](O)[C@@H]1O and report
// result 4.36

====

study-system: swine pancreatic α-amylase (Sus scrofa)
Construct: purchased Sigma Co. A-6255
Sequence (P00690 16-511): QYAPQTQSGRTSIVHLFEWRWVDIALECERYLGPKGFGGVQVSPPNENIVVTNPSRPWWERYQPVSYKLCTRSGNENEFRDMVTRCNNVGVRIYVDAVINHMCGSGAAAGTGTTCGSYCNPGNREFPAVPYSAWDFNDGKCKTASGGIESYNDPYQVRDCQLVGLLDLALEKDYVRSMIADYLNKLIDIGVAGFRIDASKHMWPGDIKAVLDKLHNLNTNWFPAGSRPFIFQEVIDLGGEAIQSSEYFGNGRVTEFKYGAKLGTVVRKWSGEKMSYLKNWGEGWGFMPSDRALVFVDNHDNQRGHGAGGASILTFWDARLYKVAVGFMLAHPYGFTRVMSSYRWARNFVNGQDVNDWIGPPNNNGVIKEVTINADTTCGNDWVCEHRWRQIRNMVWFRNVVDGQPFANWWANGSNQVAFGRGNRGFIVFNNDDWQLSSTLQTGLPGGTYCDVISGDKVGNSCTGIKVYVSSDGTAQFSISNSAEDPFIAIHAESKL
test: Hydrolysis of oligosaccharides by pancreatic α-amylase (comparative)
Format: biochemical
conditions: 1 Unit/ml α-amylase; 10 mM substrate; pH 6.9, 20° C.
metric-name: Liberated oligosaccharide

// query Could you tell me which Liberated oligosaccharide is on file for OC[C@H]1O[C@H](O[C@H]2[C@H](O)[C@@H](O)[C@@H](O[C@H]3[C@H](O)[C@@H](O)C(O)O[C@@H]3CO)O[C@@H]2CO)[C@H](O)[C@@H](O)[C@@H]1O (mixture of isomers) [Maltotriose (G3), Maltotriose] ?
// result not decomposed

// query Item: OCC1OC(OC2OC(CO)C(OC3OC(CO)C(OC4OC(CO)C(O)C(O)C4O)C(O)C3O)C(O)C2O)C(O)C(O)C1O [Maltosyltrehalose, α-D-maltotriosyl α-D-glucopyranoside]
// result not decomposed

// query Same question for OCC1OC(OC2OC(CO)C(OC3OC(CO)C(O)C(O)C3O)C(O)C2O)C(O)C(O)C1O [Glucosyltrehalose, α-D-maltosyl α-D-glucopyranoside] please.
// result not decomposed
